- TGT: GtCPES (Guillardia theta, UniProt L1JFC7, M146A)
- Sequence (L1JFC7 80-253 M146A): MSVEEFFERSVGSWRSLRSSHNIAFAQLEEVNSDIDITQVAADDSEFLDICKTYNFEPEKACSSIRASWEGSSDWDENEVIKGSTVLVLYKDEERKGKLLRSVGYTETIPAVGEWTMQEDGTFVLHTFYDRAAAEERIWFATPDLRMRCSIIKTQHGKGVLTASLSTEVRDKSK
- TEST DESCRIPTION: UV-Vis absorbance titration
EXPERIMENTAL READOUT: Kd

So, C/C=C1/C(=C/c2[nH]c(/C=C3N=C(/C=C4\NC(=O)C(CC)=C4C)C(C)=C\3CCC(=O)O)c(CCC(=O)O)c2C)NC(=O)[C@@H]1C [3(E)-PCB] ? Its Kd was 7 µM
